Data provenance: paper PMC12136788

Molecular target: T1, UNK ZnF1-3 (human, UniProt Q9C0B0 31-174)
T1 sequence: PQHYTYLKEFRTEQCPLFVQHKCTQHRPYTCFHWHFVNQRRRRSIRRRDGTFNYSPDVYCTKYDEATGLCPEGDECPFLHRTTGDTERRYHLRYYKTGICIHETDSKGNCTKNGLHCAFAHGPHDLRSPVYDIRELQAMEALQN
Assay: nsRBNS (natural sequence RNA bind-n-seq); RBNS binding buffer (assumed for nsRBNS): 25 mM Tris pH 7.5, 150 mM KCl, 3 mM MgCl2, 0.01% Triton X-100, 500 ug/ml BSA, 20 U/ml SUPERase-In, 4 C; UNK is unkempt and MSI1 is Musashi-1; names of the RNAs are library labels; protein concentration not given here; high values mean tight binding
Whole data set: some 24,000 sequences, median “enrichment r” near 0.99, cut for the highest 2% near 3.7. The sample holds the highest values, similar sequences and a random draw of the others, so the mix is not that of the screen.
OBSERVATION_TYPE: binding signal (enrichment R)
# output: bare number, implied unit enrichment R

Worked cases, binding signal given:
BINDER	binding signal [enrichment R]
chr14:76904430:76904431:+_ENSMUSG00000022010_ENSMUST00000022587|mus_mus|mus_mus_mus_hu_True|58_108 (ssRNA) RNA: GGGAGUUCUACAGUCCGACGAUCUGCUGGAAAAAAAACCCUCGUGGAAAAAAAGAGGGAACACCAGCAGCCUUGUACAAACUAGAUAAAAUCUUCUGGCUUUCCGCAGCCCAGGGAGAAACAGAAAACGGCAGCCCUAAUUUACAACAGAGGAUUGAGCAUCA	2
chr16:67134085:67134086:+_ENSG00000067955_ENST00000412916|hu_hu|FALSE|FALSE (ssRNA) RNA: GGGAGUUCUACAGUCCGACGAUCCUGAAUUGACUGUGUCAGUUUUUCACCCUUUAAAAUAAUGCCAUUUAAUGAUAAAAUACAUUUUUCAAAAAUUCAGAAAUGUAGUAACAUUUAAUAAAUGUGACCAUGAAAAAUAUUUGUCAACAGAGGAUUGAGCAUCA	0.889

Proceeding to the next binder to report its binding signal.
Record summary for 55795476_55800851_1969_CDS_ENSG00000138041_ENST00000407823|human|control|control (ssRNA) RNA: GGGAGUUCUACAGUCCGACGAUCCCGCCUCAUAAAGCGAAGGGCACACAAGGCCAGAAAAGUGUGCUUUGAAUUCAUCAAGACCAAGACUCUUCUUAGCAAGUCCUUGUUCAUAAUAUAGUUUUUUAUGUGAUAUGUGUGAUGCAACAGAGGAUUGAGCAUCA : reported binding signal = 2.04
